# Tested on: LOX IMVI
# assay_summary: NCI tumour cell line growth inhibition, 48 h
Active and inactive are the calls of the source. No stated cut-off is given here; in the data, active = GI50 up to about 1.1 µM and inactive = higher.
result_type: GI50

[
  {
    "compound": "COc1ccccc1NC(=O)C(CC(C(=O)Nc1ccccc1OC)/C(C)=N/NC(=O)c1ccccc1O)/C(C)=N/NC(=O)c1ccccc1O (configuration not stated)",
    "result_type": "GI50",
    "result": "> 100 µM (inactive)"
  },
  {
    "compound": "Nc1nc(-c2ccccc2)cc(-c2ccc(OCc3ccccc3)cc2O)n1",
    "result_type": "GI50",
    "result": "33.9 µM (inactive)"
  },
  {
    "compound": "O=c1[nH]c(=O)c2c([nH]1)[nH]c1ccccc12",
    "result_type": "GI50",
    "result": "> 100 µM (inactive)"
  },
  {
    "compound": "CCOC(=O)[C@@H](NC(=O)OC(C)(C)C)[C@@H](O)C(=O)OCC",
    "result_type": "GI50",
    "result": "> 100 µM (inactive)"
  },
  {
    "compound": "C=CCC1(C)CCCCC1(O)C[S+]([O-])c1ccccc1 (configuration not stated)",
    "result_type": "GI50",
    "result": "> 100 µM (inactive)"
  }
]

[Q] Can you look up GI50 on LOX IMVI for O=C1NC(=O)C(COCc2ccccc2)C2=C1SCCC2 (configuration not stated) ?
[A] > 100 µM (inactive)

[Q] Can you look up GI50 on LOX IMVI for O=C1Nc2ccccc2Cn2c1cc1oc(-c3ccccc3)cc12 ?
[A] > 100 µM (inactive)
